All values here come from patent US20250101041A1.

Assignment: determine reported Emax at 30 µM for the given compounds.
- measurement_target: human mAChR M4 (Homo sapiens)
- Construct: expressed in transfected cells; host or cells: CHO-K1 (American Type Culture Collection), stably expressing hM4 and Gqi5
- Sequence (P08173 whole entry): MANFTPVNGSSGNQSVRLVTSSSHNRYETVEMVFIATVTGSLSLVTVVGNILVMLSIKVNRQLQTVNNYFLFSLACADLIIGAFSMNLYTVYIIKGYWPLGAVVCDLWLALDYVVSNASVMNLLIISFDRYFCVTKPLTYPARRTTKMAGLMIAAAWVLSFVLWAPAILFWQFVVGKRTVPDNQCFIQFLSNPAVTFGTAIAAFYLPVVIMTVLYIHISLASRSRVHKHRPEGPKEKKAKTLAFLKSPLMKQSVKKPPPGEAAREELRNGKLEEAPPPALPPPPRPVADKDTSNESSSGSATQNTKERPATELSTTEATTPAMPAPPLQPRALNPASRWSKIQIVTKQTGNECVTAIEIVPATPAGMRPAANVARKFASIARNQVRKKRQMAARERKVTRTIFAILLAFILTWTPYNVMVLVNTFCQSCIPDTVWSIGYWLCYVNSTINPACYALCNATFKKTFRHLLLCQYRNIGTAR
- test_name: mAChR M4 cell-based functional assay: calcium mobilization (Fluo-4, FDSS), potentiation of EC20 acetylcholine response in hM4-Gqi5 CHO-K1 cells
- condition_label: CHO-K1, % ACh maximum at 30 μM; human M4
# number then unit; no other words

{"compound": "Cc1c(N2CCc3ncc(-c4cncnc4)cc3C2)nn2c(=O)ccnc2c1C [Compound 1-104]", "measurement_target": "human mAChR M4 (Homo sapiens)", "readout_value": "90%"}
{"compound": "Cc1cc(=O)n2nc(N3CCc4ncc(Oc5ccccc5F)cc4C3)c(C)cc2n1 [Compound 3-2]", "measurement_target": "human mAChR M4 (Homo sapiens)", "readout_value": "80%"}
{"compound": "Cc1cc2nccc(=O)n2nc1N1CCc2ncc(NCC3CCOCC3)cc2C1 [Compound 2-91]", "measurement_target": "human mAChR M4 (Homo sapiens)", "readout_value": "80%"}
{"compound": "Cc1cc2nccc(=O)n2nc1N1CCc2ncc(-c3cc(C#N)n(C)c3C)cc2C1 [Compound 1-423]", "measurement_target": "human mAChR M4 (Homo sapiens)", "readout_value": "79%"}
{"compound": "Cc1c(N2CCc3ncc(-c4cccnc4)cc3C2)nn2c(=O)cc(C(F)F)nc2c1C [Compound 1-155]", "measurement_target": "human mAChR M4 (Homo sapiens)", "readout_value": "91%"}

Provide the reported Emax at 30 µM of each entry below, same order.
1. Cc1cc2nc(C(F)(F)F)cc(=O)n2nc1N1CCc2ncc(C(F)(F)F)cc2C1 [Compound 1-17]
2. Cc1cc2nc(C(F)F)cc(=O)n2nc1N1CCc2ncc(-c3cn(C)nc3C)cc2C1 [Compound 1-34]

1: 79%; 2: 90%
